study-system: DNA topoisomerase 2-alpha (Homo sapiens) (UniProt P11388)
Sequence (P11388 whole entry): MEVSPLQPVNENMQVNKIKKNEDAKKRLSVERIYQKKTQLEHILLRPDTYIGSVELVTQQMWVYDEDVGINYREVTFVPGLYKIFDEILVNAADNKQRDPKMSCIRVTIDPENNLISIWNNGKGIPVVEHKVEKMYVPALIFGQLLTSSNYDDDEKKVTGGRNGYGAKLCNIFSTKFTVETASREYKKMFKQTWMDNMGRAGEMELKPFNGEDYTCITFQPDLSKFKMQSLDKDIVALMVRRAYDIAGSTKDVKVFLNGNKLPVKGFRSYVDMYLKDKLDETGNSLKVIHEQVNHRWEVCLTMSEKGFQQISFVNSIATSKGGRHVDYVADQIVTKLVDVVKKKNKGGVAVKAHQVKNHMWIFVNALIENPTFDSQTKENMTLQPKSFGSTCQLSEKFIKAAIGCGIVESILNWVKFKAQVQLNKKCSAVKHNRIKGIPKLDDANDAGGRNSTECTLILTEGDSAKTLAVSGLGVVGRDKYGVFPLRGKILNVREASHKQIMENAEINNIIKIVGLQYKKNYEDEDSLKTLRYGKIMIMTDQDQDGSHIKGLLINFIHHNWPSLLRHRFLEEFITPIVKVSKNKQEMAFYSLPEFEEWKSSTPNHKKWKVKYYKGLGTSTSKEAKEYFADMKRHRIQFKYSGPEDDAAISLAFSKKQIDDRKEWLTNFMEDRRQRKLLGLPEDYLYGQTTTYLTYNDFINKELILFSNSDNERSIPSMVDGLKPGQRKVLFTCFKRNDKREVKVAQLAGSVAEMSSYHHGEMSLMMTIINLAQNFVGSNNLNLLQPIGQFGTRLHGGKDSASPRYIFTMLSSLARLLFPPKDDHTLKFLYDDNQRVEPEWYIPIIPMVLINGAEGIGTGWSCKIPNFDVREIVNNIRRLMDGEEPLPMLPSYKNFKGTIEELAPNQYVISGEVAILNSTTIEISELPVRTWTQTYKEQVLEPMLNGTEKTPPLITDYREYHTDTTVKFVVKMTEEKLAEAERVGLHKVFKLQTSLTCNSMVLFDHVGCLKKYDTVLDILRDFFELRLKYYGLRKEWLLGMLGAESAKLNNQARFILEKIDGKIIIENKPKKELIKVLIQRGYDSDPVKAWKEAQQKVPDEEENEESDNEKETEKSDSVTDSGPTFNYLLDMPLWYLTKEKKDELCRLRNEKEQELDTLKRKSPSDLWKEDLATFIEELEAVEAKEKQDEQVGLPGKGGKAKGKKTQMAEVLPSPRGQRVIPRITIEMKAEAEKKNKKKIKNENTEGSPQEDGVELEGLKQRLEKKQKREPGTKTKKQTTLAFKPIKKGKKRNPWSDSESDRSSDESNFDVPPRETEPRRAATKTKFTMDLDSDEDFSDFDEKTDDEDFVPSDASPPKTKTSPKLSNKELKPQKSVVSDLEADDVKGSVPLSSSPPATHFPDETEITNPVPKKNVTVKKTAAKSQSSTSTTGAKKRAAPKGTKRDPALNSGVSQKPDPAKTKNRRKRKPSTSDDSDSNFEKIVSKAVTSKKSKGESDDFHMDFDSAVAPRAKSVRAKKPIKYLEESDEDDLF
method-notes: Inhibition of recombinant human topoisomerase 2alpha-mediated relaxation of supercoiled pBR322 DNA at 20 uM measured after 30 mins by ethidium bromide staining based agarose gel electrophoresis relative to control

molecular-string	inhibition (%)
Oc1cccc(-c2cc(-c3cccc(F)c3)nc3c2Cc2c(O)cccc2-3)c1	5.6
Oc1ccc(-c2cc(-c3ccccc3)c3c(n2)-c2cc(O)ccc2C3)cc1	9.3
Oc1cccc(-c2cc(-c3ccc(Cl)cc3)c3c(n2)-c2c(O)cccc2C3)c1	8.5
Oc1cccc(-c2cc(-c3ccccc3F)nc3c2Cc2cc(O)ccc2-3)c1	4.9
Oc1cccc(-c2cc(-c3cccc(Cl)c3)c3c(n2)-c2cccc(O)c2C3)c1	2.3
Oc1ccc(-c2cc(-c3ccccc3C(F)(F)F)nc3c2Cc2c(O)cccc2-3)cc1	0.6
Oc1ccccc1-c1cc(-c2ccccc2)nc2c1Cc1cccc(O)c1-2	0.1
Oc1cccc(-c2cc(-c3ccc(Cl)cc3)nc3c2Cc2ccc(O)cc2-3)c1	51.9
Oc1cccc(-c2cc(-c3ccc(F)cc3)nc3c2Cc2ccc(O)cc2-3)c1	5.4
Oc1cccc(-c2cc(-c3ccccc3Cl)c3c(n2)-c2c(O)cccc2C3)c1	3.6
Oc1cccc(-c2cc(-c3ccc(Cl)cc3)c3c(n2)-c2cccc(O)c2C3)c1	4.4
Oc1ccccc1-c1cc(-c2ccccc2Cl)c2c(n1)-c1cccc(O)c1C2	1.8
Oc1cccc(-c2cc(-c3ccccc3Cl)nc3c2Cc2cc(O)ccc2-3)c1	32.3
Oc1ccc2c(c1)Cc1c(-c3ccccc3O)cc(-c3ccccc3Cl)nc1-2	8.2
Oc1cccc(-c2cc(-c3cccc(Cl)c3)nc3c2Cc2ccc(O)cc2-3)c1	14.3
Oc1ccc2c(c1)-c1nc(-c3ccccc3O)cc(-c3cccc(Cl)c3)c1C2	4
Oc1cccc(-c2cc(-c3ccc(C(F)(F)F)cc3)nc3c2Cc2ccc(O)cc2-3)c1	5.1
